# tgt: human serum albumin (HSA) (Homo sapiens, UniProt P02768)
# Construct: purchased
# Sequence (P02768 25-609): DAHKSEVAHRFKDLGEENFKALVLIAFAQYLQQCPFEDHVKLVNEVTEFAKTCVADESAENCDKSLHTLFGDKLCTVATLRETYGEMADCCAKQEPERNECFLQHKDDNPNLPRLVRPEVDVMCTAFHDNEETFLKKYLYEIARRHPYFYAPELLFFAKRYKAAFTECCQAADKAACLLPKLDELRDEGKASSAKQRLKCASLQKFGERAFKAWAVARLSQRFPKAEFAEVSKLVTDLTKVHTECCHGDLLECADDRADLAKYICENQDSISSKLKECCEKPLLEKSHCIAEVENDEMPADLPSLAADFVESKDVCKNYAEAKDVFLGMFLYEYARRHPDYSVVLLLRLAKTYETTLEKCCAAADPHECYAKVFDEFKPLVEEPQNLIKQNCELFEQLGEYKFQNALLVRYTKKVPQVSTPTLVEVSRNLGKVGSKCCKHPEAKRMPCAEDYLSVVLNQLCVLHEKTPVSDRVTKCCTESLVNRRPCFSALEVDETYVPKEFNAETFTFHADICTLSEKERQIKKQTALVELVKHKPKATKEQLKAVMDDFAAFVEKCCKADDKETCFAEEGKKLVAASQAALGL
# test: Albumin binding by tryptophan fluorescence emission quenching
# protocol.conditions: HSA 3 μM, buffer pH 7.0, Scatchard equation
Listing of recorded K(HSA), HSA-binding constant by entry.

GET /value?item= CN1CCN(c2c(F)cc3c(=O)c(C(=O)[O-])cn(CCF)c3c2F)CC1.CN1CCN(c2c(F)cc3c(=O)c(C(=O)[O-])cn(CCF)c3c2F)CC1.O.O.[Mn+2] [complex 2, [Mn(flrx)2(H2O)2]] &field=K(HSA), HSA-binding constant returns 9.58(±0.39) × 10^4 M^−1

GET /value?item= CN1CCN(c2c(F)cc3c(=O)c(C(=O)[O-])cn(CCF)c3c2F)CC1.CN1CCN(c2c(F)cc3c(=O)c(C(=O)[O-])cn(CCF)c3c2F)CC1.[Zn+2].c1ccc(-c2ccccn2)nc1 [complex 12, [Zn(flrx)2(bipy)]] &field=K(HSA), HSA-binding constant returns 1.04(±0.06) × 10^5 M^−1

GET /value?item= CN1CCN(c2c(F)cc3c(=O)c(C(=O)[O-])cn(CCF)c3c2F)CC1.CN1CCN(c2c(F)cc3c(=O)c(C(=O)[O-])cn(CCF)c3c2F)CC1.[Mn+2].c1cnc2c(c1)ccc1cccnc12 [complex 11, [Mn(flrx)2(phen)]] &field=K(HSA), HSA-binding constant returns 1.01(±0.04) × 10^5 M^−1

GET /value?item= CN1CCN(c2c(F)cc3c(=O)c(C(=O)[O-])cn(CCF)c3c2F)CC1.CN1CCN(c2c(F)cc3c(=O)c(C(=O)[O-])cn(CCF)c3c2F)CC1.CO.CO.[Ni+2] [complex 5, [Ni(flrx)2(MeOH)2]] &field=K(HSA), HSA-binding constant returns 5.76(±0.28) × 10^4 M^−1

GET /value?item= CN1CCN(c2c(F)cc3c(=O)c(C(=O)[O-])cn(CCF)c3c2F)CC1.[Cl-].[Cu+2].c1ccc(Nc2ccccn2)nc1 [complex 7, [Cu(flrx)(bipyam)Cl]] &field=K(HSA), HSA-binding constant returns 1.31(±0.05) × 10^5 M^−1

====

Listing of recorded kq(HSA), HSA-quenching constant by entry.
# tgt: human serum albumin (HSA) (Homo sapiens)
# Construct: purchased
# test: Albumin binding by tryptophan fluorescence emission quenching
# protocol.conditions: HSA 3 μM, buffer pH 7.0, λexc 295 nm, Stern–Volmer, τ0 = 10^–8 s

GET /value?item= CN1CCN(c2c(F)cc3c(=O)c(C(=O)[O-])cn(CCF)c3c2F)CC1.[Cl-].[Cu+2].c1ccc(-c2ccccn2)nc1 [complex 6, [Cu(flrx)(bipy)Cl]] &field=kq(HSA), HSA-quenching constant returns 6.08(±0.06) × 10^12 M^−1s^−1

GET /value?item= CN1CCN(c2c(F)cc3c(=O)c(C(=O)[O-])cn(CCF)c3c2F)CC1.[Cl-].[Cu+2].c1ccc(Nc2ccccn2)nc1 [complex 7, [Cu(flrx)(bipyam)Cl]] &field=kq(HSA), HSA-quenching constant returns 5.57(±0.18) × 10^12 M^−1s^−1

====

Listing of recorded kq(HSA), HSA-quenching constant by entry.
# tgt: human serum albumin (HSA) (Homo sapiens, UniProt P02768)
# Construct: purchased
# test: Albumin binding by tryptophan fluorescence emission quenching
# protocol.conditions: HSA 3 μM, buffer pH 7.0, λexc 295 nm, Stern–Volmer, τ0 = 10^–8 s

* CN1CCN(c2c(F)cc3c(=O)c(C(=O)[O-])cn(CCF)c3c2F)CC1.CN1CCN(c2c(F)cc3c(=O)c(C(=O)[O-])cn(CCF)c3c2F)CC1.[Zn+2].c1ccc(Nc2ccccn2)nc1 [complex 13, [Zn(flrx)2(bipyam)]] | 1.23(±0.05) × 10^13 M^−1s^−1

GET /value?item= CN1CCN(c2c(F)cc3c(=O)c(C(=O)[O-])cn(CCF)c3c2F)CC1.CN1CCN(c2c(F)cc3c(=O)c(C(=O)[O-])cn(CCF)c3c2F)CC1.[Ni+2].c1cnc2c(c1)ccc1cccnc12 [complex 19, [Ni(flrx)2(phen)]] &field=kq(HSA), HSA-quenching constant returns 6.67(±0.18) × 10^12 M^−1s^−1

GET /value?item= CN1CCN(c2c(F)cc3c(=O)c(C(=O)[O-])cn(CCF)c3c2F)CC1.CN1CCN(c2c(F)cc3c(=O)c(C(=O)[O-])cn(CCF)c3c2F)CC1.CO.CO.[Co+2] [complex 4, [Co(flrx)2(MeOH)2]] &field=kq(HSA), HSA-quenching constant returns 6.05(±0.13) × 10^12 M^−1s^−1

====

# tgt: human serum albumin (HSA) (Homo sapiens, UniProt P02768)
# Construct: purchased
# test: Albumin binding by tryptophan fluorescence emission quenching
# protocol.conditions: HSA 3 μM, buffer pH 7.0, Scatchard equation
Listing of recorded K(HSA), HSA-binding constant by entry.

Recorded K(HSA), HSA-binding constant, per entry:
* CN1CCN(c2c(F)cc3c(=O)c(C(=O)[O-])cn(CCF)c3c2F)CC1.CN1CCN(c2c(F)cc3c(=O)c(C(=O)[O-])cn(CCF)c3c2F)CC1.[Co+2].c1ccc(Nc2ccccn2)nc1 [complex 16, [Co(flrx)2(bipyam)]] | 9.61(±0.36) × 10^4 M^−1
* CN1CCN(c2c(F)cc3c(=O)c(C(=O)[O-])cn(CCF)c3c2F)CC1.CN1CCN(c2c(F)cc3c(=O)c(C(=O)[O-])cn(CCF)c3c2F)CC1.[Co+2].c1cnc2c(c1)ccc1cccnc12 [complex 17, [Co(flrx)2(phen)]] | 5.18(±0.32) × 10^4 M^−1
* CN1CCN(c2c(F)cc3c(=O)c(C(=O)[O-])cn(CCF)c3c2F)CC1.[Cl-].[Cu+2].c1ccc(-c2ccccn2)nc1 [complex 6, [Cu(flrx)(bipy)Cl]] | 1.02(±0.03) × 10^5 M^−1
* CN1CCN(c2c(F)cc3c(=O)c(C(=O)[O-])cn(CCF)c3c2F)CC1.CN1CCN(c2c(F)cc3c(=O)c(C(=O)[O-])cn(CCF)c3c2F)CC1.CO.CO.[Co+2] [complex 4, [Co(flrx)2(MeOH)2]] | 7.68(±0.33) × 10^4 M^−1
* CN1CCN(c2c(F)cc3c(=O)c(C(=O)[O-])cn(CCF)c3c2F)CC1.CN1CCN(c2c(F)cc3c(=O)c(C(=O)[O-])cn(CCF)c3c2F)CC1.[Zn+2].c1cnc2c(c1)ccc1cccnc12 [complex 14, [Zn(flrx)2(phen)]] | 6.16(±0.43) × 10^4 M^−1

GET /value?item= CN1CCN(c2c(F)cc3c(=O)c(C(=O)[O-])cn(CCF)c3c2F)CC1.CN1CCN(c2c(F)cc3c(=O)c(C(=O)[O-])cn(CCF)c3c2F)CC1.[Co+2].c1ccc(-c2ccccn2)nc1 [complex 15, [Co(flrx)2(bipy)]] &field=K(HSA), HSA-binding constant returns 8.13(±0.25)×10^4 M^−1

GET /value?item= CN1CCN(c2c(F)cc3c(=O)c(C(=O)[O-])cn(CCF)c3c2F)CC1.[Cl-].[Cu+2].c1cnc2c(c1)ccc1cccnc12 [complex 8, [Cu(flrx)(phen)Cl]] &field=K(HSA), HSA-binding constant returns 3.45(±0.14) × 10^4 M^−1

GET /value?item= CN1CCN(c2c(F)cc3c(=O)c(C(=O)[O-])cn(CCF)c3c2F)CC1.CN1CCN(c2c(F)cc3c(=O)c(C(=O)[O-])cn(CCF)c3c2F)CC1.[Zn+2].c1ccc(Nc2ccccn2)nc1 [complex 13, [Zn(flrx)2(bipyam)]] &field=K(HSA), HSA-binding constant returns 3.69(±0.14) × 10^4 M^−1

====

# System: CT DNA
# test: Study of the DNA-interaction by cyclic voltammetry
# Assay type: binding, calf
# protocol.conditions: eq. S6
# Procedure: Cyclic voltammetry was used to study the interaction of the complexes with CT DNA. An intercalative interaction will induce a positive shift for the electrochemical potential(s) of metal oxidation/reduction, whereas, in the case of electrostatic interaction, a negative shift in the potential(s) may occur. The cyclic voltammograms of the complexes in a 1:2 DMSO:buffer solution (0.33 mM) were recorded in the absence and presence of the CT DNA solution (Figure S13). […]
Listing of recorded Kr/Kox, ratio of equilibrium DNA-binding constants (reduced/oxidized form) by entry.
# print the numeric value only

Recorded Kr/Kox, ratio of equilibrium DNA-binding constants (reduced/oxidized form), per entry:
• CN1CCN(c2c(F)cc3c(=O)c(C(=O)[O-])cn(CCF)c3c2F)CC1.CN1CCN(c2c(F)cc3c(=O)c(C(=O)[O-])cn(CCF)c3c2F)CC1.CO.CO.[Co+2] [complex 4, [Co(flrx)2(MeOH)2]] = 1.15
• CN1CCN(c2c(F)cc3c(=O)c(C(=O)[O-])cn(CCF)c3c2F)CC1.CN1CCN(c2c(F)cc3c(=O)c(C(=O)[O-])cn(CCF)c3c2F)CC1.[Cu+2] [complex 1, [Cu(flrx)2]] = 1.31

GET /value?item= CN1CCN(c2c(F)cc3c(=O)c(C(=O)[O-])cn(CCF)c3c2F)CC1.CN1CCN(c2c(F)cc3c(=O)c(C(=O)[O-])cn(CCF)c3c2F)CC1.[Co+2].c1ccc(-c2ccccn2)nc1 [complex 15, [Co(flrx)2(bipy)]] &field=Kr/Kox, ratio of equilibrium DNA-binding constants (reduced/oxidized form) returns 0.98

Every entry's value here was drawn from paper PMC9144902.
